# System: A-431
# test: Skin A431 cell line MDS Pharma Services Proliferation Assay
# Format: functional, cell-based, Homo sapiens
# experimentalConditions: Homo sapiens, A-431
measuredMetric: pIC50
Give bare numbers, as −log10 of the molar value.

Exam item: GET /values?readout=pIC50&item= `Cc1c[nH]c2nccc(Oc3c(F)cc(Nc4cc(Cl)nc(N)n4)cc3F)c12`
Marked response: 5.26

====

A set of molecules tested on Kappa-type opioid receptor (Homo sapiens, UniProt P41145), with measured pKi:
Numbers only, as −log10 of the molar value.

>  <smilesInput>
Cn1cc(Cl)c2c(Oc3c(F)cc(Nc4cc(Cl)nc(N)n4)cc3F)ccnc21

>  <quantitativeResult>
6.41

$$$$

Here is the next item to consider.
Exam item: Suppose we examine the molecule `Cc1c[nH]c2nccc(Oc3c(F)cc(Nc4cc(Cl)nc(N)n4)cc3F)c12` ; what pKi value has been reported?
Marked response: 6.73
